# Tested on: HEK-293T
# assaySummary: Multiplex assay against HEK293T
# Format: toxicity, cell-based
# testParameters: human, 12 h, 1 µM, compound concentration 1 uM, replicate 1
Each item that follows carries a reported Population Hoechst High Intensity Objects (%).
The reply should contain only the number, in %.

CN1CCN(c2ccc(OC(F)(F)F)c(Nc3ncc4c(n3)-c3c(c(C(N)=O)nn3CCO)CC4)c2)CC1    16
CNc1nc(NCc2ccc(NS(C)(=O)=O)cc2Cl)cc(-c2ccccn2)n1    17
Cc1[nH]c(/C=C2\C(=O)Nc3ccc(S(=O)(=O)N(C)c4cccc(Cl)c4)cc32)c(C)c1C(=O)N1CCN(C)CC1    16
Cc1nc(-c2ccc(-c3ccc(C(=O)N4CCc5cc6c(cc54)C4(CCN(C)CC4)CO6)cc3)c(C)c2)no1    14
COc1cc(-n2cnc3cc(-c4ccc(Cl)cc4)sc3c2=O)ccc1OCCN1CCCC1    15
NC(=O)Nc1cc(-c2cccc(F)c2)sc1C(=O)N[C@H]1CCCNC1    13
CN(C)C(=O)/C(C#N)=C/c1ccc(-c2nc3cnc4[nH]ccc4c3n2C2CCCCC2)o1    12
Cc1cc(C)cc(-c2cnc3cc(Cl)c(-c4cccc(O)c4)cc3c2OCCCN)c1    10

## Input Please report the recorded Population Hoechst High Intensity Objects (%) for `Cc1nc(-c2cn3c(n2)-c2ccc(-c4cnn(C(C)(C)C(N)=O)c4)cc2OCC3)n(C(C)C)n1` .
## Output 22

## Input Param item: `Cn1cc(-c2[nH]c3cc(NC(=O)[C@H](N)C4CCCCC4)cc4c3c2C=NNC4=O)cn1`
## Output 14

## Input Param item: `C=CC(=O)Nc1ccc2ncnc(Nc3ccc(OCc4cccc(F)c4)c(Cl)c3)c2c1.Cc1ccc(S(=O)(=O)O)cc1`
## Output 11

## Input Param item: CN1CCC[C@@H]1CCO[C@](C)(c1ccccc1)c1ccc(Cl)cc1.O=C(O)/C=C/C(=O)O [CLEMASTINE FUMARATE]
## Output 9

###

# Tested on: U2OS
# assaySummary: Multiplex assay against U2OS
# Format: toxicity, cell-based
# testParameters: human, 12 h, 1 µM, compound concentration 1 uM, replicate 2
Each item that follows carries a reported Population Apoptotic (%).

Cc1nc(-c2ccc(-c3ccc(C(=O)N4CCc5cc6c(cc54)C4(CCN(C)CC4)CO6)cc3)c(C)c2)no1 [SB-224289]    28%

## Input Please report the recorded Population Apoptotic (%) for C=CC(=O)Nc1cc2c(Nc3ccc(F)c(Cl)c3)ncnc2cc1OCCCN1CCOCC1.Cl.Cl [CANERTINIB DIHYDROCHLORIDE] .
## Output 95%

## Input Param item: CN1CCCC(n2nc(Cc3ccc(Cl)cc3)c3ccccc3c2=O)CC1.Cl (stereo unspecified) [AZELASTINE HYDROCHLORIDE]
## Output 25%

## Input Param item: `CN(C)C(=O)/C(C#N)=C/c1ccc(-c2nc3cnc4[nH]ccc4c3n2C2CCCCC2)o1`
## Output 57%

## Input Param item: Cl.N#Cc1ccc2[nH]cc(CCCCN3CCN(c4ccc5oc(C(N)=O)cc5c4)CC3)c2c1 [VILAZODONE HYDROCHLORIDE]
## Output 27%

## Input Param item: c1cn2cc(-c3ccc4cn[nH]c4c3)nc(Nc3ccc(N4CCOCC4)cc3)c2n1 [ENTOSPLETINIB]
## Output 40%

## Input Param item: CN(C)C(=O)N[C@H]1CC[C@H](CCN2CCN(c3cccc(Cl)c3Cl)CC2)CC1.Cl [CARIPRAZINE HYDROCHLORIDE]
## Output 60%

## Input Param item: CN1CCN(c2ccc(OC(F)(F)F)c(Nc3ncc4c(n3)-c3c(c(C(N)=O)nn3CCO)CC4)c2)CC1 [ONVANSERTIB]
## Output 25%

## Input Param item: CCN(CC)CCCCNc1ncc2cc(-c3cc(OC)cc(OC)c3)c(NC(=O)NC(C)(C)C)nc2n1 [PD-173074]
## Output 54%

## Input Param item: CC[C@H](C)C(=O)O[C@H]1C[C@@H](C)C=C2C=C[C@H](C)[C@H](CC[C@@H]3C[C@@H](O)CC(=O)O3)[C@H]21 [LOVASTATIN]
## Output 25%

## Input Param item: O=C1NCN(c2ccccc2)C12CCN(CCCOc1ccc(F)cc1)CC2 [SPIRAMIDE]
## Output 0%

## Input Param item: COc1ncc(-c2ccc3nccc(-c4ccnnc4)c3c2)cc1NS(=O)(=O)c1ccc(F)cc1F [OMIPALISIB]
## Output 50%

## Input Param item: CC(C)NCC(O)COc1ccc(CCOCC2CC2)cc1.Cl (stereo unspecified) [BETAXOLOL HYDROCHLORIDE]
## Output 100%

## Input Param item: Cc1c(-c2ccc(O)cc2)n(Cc2ccc(OCCN3CCCCCC3)cc2)c2ccc(O)cc12 [BAZEDOXIFENE]
## Output 0%

## Input Param item: CNCc1ccc(-c2cc(-c3nc(-c4ccc(S(=O)(=O)C(C)C)cc4)cnc3N)on2)cc1 [BERZOSERTIB]
## Output 10%

## Input Param item: NC(=O)Nc1cc(-c2cccc(F)c2)sc1C(=O)N[C@H]1CCCNC1 [AZD-7762]
## Output 0%

###

# Tested on: HEK-293T
# assaySummary: Multiplex assay against HEK293T
# Type: toxicity, cell-based
# testParameters: human, 24 h, 10 µM, compound concentration 10 uM, replicate 2
experimentalEndpoint: Total Cell Count

Cc1nc(-c2ccc(-c3ccc(C(=O)N4CCc5cc6c(cc54)C4(CCN(C)CC4)CO6)cc3)c(C)c2)no1    150

## Input Please report the recorded Total Cell Count for `CNc1nc(NCc2ccc(NS(C)(=O)=O)cc2Cl)cc(-c2ccccn2)n1` .
## Output 177

###

# Tested on: HEK-293T
# assaySummary: Multiplex assay against HEK293T
# Assay type: toxicity, cell-based
# testParameters: human, 48 h, 10 µM, compound concentration 10 uM, replicate 1
Each item that follows carries a reported Total Cell Count.
Could you respond with only the numeric value?

C[C@@]1(C(=O)Nc2ccc(F)nc2)CCCN1c1nc(Nc2cc(C3CC3)n[nH]2)c2cccn2n1    290
Cl.N#Cc1ccc2[nH]cc(CCCCN3CCN(c4ccc5oc(C(N)=O)cc5c4)CC3)c2c1 [VILAZODONE HYDROCHLORIDE]    248
CN1CCN(CCOc2cc(OC3CCOCC3)c3c(Nc4c(Cl)ccc5c4OCO5)ncnc3c2)CC1    230

Continue with the next molecule.
## Input Please report the recorded Total Cell Count for `COc1cc2nccc(Oc3ccc(NC(=O)Nc4cc(C)on4)c(Cl)c3)c2cc1OC.O` .
## Output 272

###

# Tested on: Fibroblast
# assaySummary: Multiplex assay against human fibroblast
# Type: toxicity, cell-based
# testParameters: 48 h, 10 µM, compound concentration 10 uM, replicate 1
experimentalEndpoint: Population Apoptotic (%)
The reply should contain only the number, in %.

## Input Please report the recorded Population Apoptotic (%) for `COc1ncc(-c2ccc3nccc(-c4ccnnc4)c3c2)cc1NS(=O)(=O)c1ccc(F)cc1F` .
## Output 63

## Input Param item: `COc1cc2nccc(Oc3ccc(NC(=O)Nc4cc(C)on4)c(Cl)c3)c2cc1OC.O`
## Output 76

## Input Param item: `CN(C)C(=O)/C(C#N)=C/c1ccc(-c2nc3cnc4[nH]ccc4c3n2C2CCCCC2)o1`
## Output 37

## Input Param item: `CN1CCN(c2ccc(OC(F)(F)F)c(Nc3ncc4c(n3)-c3c(c(C(N)=O)nn3CCO)CC4)c2)CC1`
## Output 50

###

# System: HEK-293T
# assaySummary: Multiplex assay against HEK293T
# Type: toxicity, cell-based
# testParameters: human, 48 h, 10 µM, compound concentration 10 uM, replicate 1
experimentalEndpoint: Population Fragmented Nuclei (%)
The reply should contain only the number, in %.

CN1CCC[C@@H]1CCO[C@](C)(c1ccccc1)c1ccc(Cl)cc1.O=C(O)/C=C/C(=O)O [CLEMASTINE FUMARATE]    24
CCn1c(=O)c(-c2ccc(Cl)cc2Cl)cc2cnc(Nc3ccc(N4CCNCC4)c(F)c3)nc21    46

## Input Please report the recorded Population Fragmented Nuclei (%) for O=C1NCN(c2ccccc2)C12CCN(CCCOc1ccc(F)cc1)CC2 [SPIRAMIDE] .
## Output 17

## Input Param item: Cl.N#Cc1ccc2[nH]cc(CCCCN3CCN(c4ccc5oc(C(N)=O)cc5c4)CC3)c2c1 [VILAZODONE HYDROCHLORIDE]
## Output 27

## Input Param item: `Cc1c(-c2ccc(O)cc2)n(Cc2ccc(OCCN3CCCCCC3)cc2)c2ccc(O)cc12`
## Output 22

## Input Param item: `CN(C)CC#Cc1ccc(OCCCc2sc(N3CCc4cccc(C(=O)Nc5nc6ccccc6s5)c4C3)nc2C(=O)O)c(F)c1`
## Output 15

## Input Param item: `CCOCCn1cc(C(=O)Nc2ccc(-n3nc(-c4cccnc4)cc3C(F)(F)F)cn2)ccc1=O`
## Output 22

## Input Param item: CN1CCCC(n2nc(Cc3ccc(Cl)cc3)c3ccccc3c2=O)CC1.Cl (stereo unspecified) [AZELASTINE HYDROCHLORIDE]
## Output 20

## Input Param item: `CC[C@H](C)C(=O)O[C@H]1C[C@@H](C)C=C2C=C[C@H](C)[C@H](CC[C@@H]3C[C@@H](O)CC(=O)O3)[C@H]21`
## Output 17
